This listing pairs molecules with measured mortality at 50 ppm.
test system: corn planthopper (Peregrinus maidis); assay: Test D: control of corn planthopper on maize plant, contact and/or systemic; assay type: in vivo; conditions: 144 h, sprayed at 50 ppm, assessed after 6 days, read-out: control efficacy: mortality
Measured endpoint: mortality at 50 ppm

INSERT INTO measurements (mol_smiles, measured_endpoint, experimental_value) VALUES
  ('COc1cccc(-c2c([O-])[n+](Cc3cncnc3)c3ccccn3c2=O)c1', 'mortality at 50 ppm', '≥ 80%'),
  ('O=c1c(-c2cccc(Cl)c2)c([O-])[n+](Cc2cncnc2)c2ccccn12', 'mortality at 50 ppm', '≥ 80%'),
  ('O=c1c(-c2ccccc2)c([O-])[n+](Cc2cncnc2)c2ccccn12', 'mortality at 50 ppm', '≥ 80%'),
  ('O=c1c(-c2ccc(F)c(C(F)(F)F)c2)c([O-])[n+](Cc2cncnc2)c2ccccn12', 'mortality at 50 ppm', '≥ 80%'),
  ('O=c1c(-c2ccc(F)cc2)c([O-])[n+](Cc2cncnc2)c2ccccn12', 'mortality at 50 ppm', '≥ 80%'),
  ('O=c1c(-c2ccccc2F)c([O-])[n+](Cc2cncnc2)c2ccccn12', 'mortality at 50 ppm', '≥ 80%'),
  ('O=c1c(-c2cccc(C(F)(F)F)c2)c([O-])[n+](Cc2cncnc2)c2ccccn12', 'mortality at 50 ppm', '≥ 80%'),
  ('Cc1cc(-c2ccc(C#N)cc2C)cc(-c2c([O-])[n+](Cc3cncnc3)c3ccccn3c2=O)c1', 'mortality at 50 ppm', '≥ 80%');

----------
system: corn planthopper (Peregrinus maidis); experiment: Test D: control of corn planthopper on maize plant, contact and/or systemic; assay type: in vivo; details: 144 h, sprayed at 50 ppm, assessed after 6 days, read-out: control efficacy: mortality
mortality at 50 ppm by entry:
Measured endpoint: mortality at 50 ppm

INSERT INTO assay_data (molecule, experimental_value) VALUES
  ('O=c1c(-c2cc(Cl)c(F)c(Cl)c2)c([O-])[n+](Cc2cncnc2)c2ccccn12 [Compound 17]', '≥ 80%'),
  ('COc1ccccc1-c1c([O-])[n+](Cc2cncnc2)c2ccccn2c1=O [Compound 4]', '≥ 80%'),
  ('O=c1c(-c2cc(C(F)(F)F)ccc2F)c([O-])[n+](Cc2cncnc2)c2ccccn12 [Compound 10]', '≥ 80%'),
  ('O=c1c(-c2cc(Cl)cc(Cl)c2)c([O-])[n+](Cc2cncnc2)c2ccccn12 [Compound 16]', '≥ 80%'),
  ('Cc1cccc(-c2c([O-])[n+](Cc3cncnc3)c3ccccn3c2=O)c1 [Compound 11]', '≥ 80%'),
  ('O=c1c(-c2cc(Cl)cc(C(F)(F)F)c2)c([O-])[n+](Cc2cncnc2)c2ccccn12 [Compound 15]', '≥ 80%');

----------
Listed here: items and their measured mortality at 2 ppm.
system: rice brown planthopper (Nilaparvata lugens); assay: Test H: control of rice brown planthopper on rice plant; type: in vivo; details: 120 h, sprayed at 2 ppm, assessed after 5 days, read-out: control efficacy: mortality
Measured endpoint: mortality at 2 ppm

INSERT INTO results (mol_smiles, experimental_value) VALUES
  ('O=c1c(-c2cccc(C(F)(F)F)c2)c([O-])[n+](Cc2cncnc2)c2ccccn12', '≥ 80%'),
  ('O=c1c(-c2ccc(F)cc2)c([O-])[n+](Cc2cncnc2)c2ccccn12', '≥ 80%'),
  ('O=c1c(-c2cccc(OC(F)(F)F)c2)c([O-])[n+](Cc2cncnc2)c2ccccn12', '≥ 80%'),
  ('O=c1c(-c2cc(C(F)(F)F)ccc2F)c([O-])[n+](Cc2cncnc2)c2ccccn12', '≥ 80%');

----------
Reported mortality at 10 ppm is given for each of the following molecules.
Test system: rice green leafhopper (Nephotettix virescens)
Experiment: Test G: control of rice green leafhopper on rice plant
Format: in vivo
Conditions: 120 h, sprayed at 10 ppm, assessed after 5 days, read-out: control efficacy: mortality
Protocol: For evaluating control of rice green leafhopper (Nephotettix virescens) through contact and/or systemic means, the test unit consisted of a plastic pot containing a 13-cm-tall rice plant covered with steel wire mesh (50 mesh) supported by a wire frame. A small amount of sand was added to form a good seal between the bottom of the wire mesh, the soil surface and the top edge of the plastic pot. […]
Measured endpoint: mortality at 10 ppm

INSERT INTO results (mol_smiles, experimental_value) VALUES
  ('Cc1cccc(-c2c([O-])[n+](Cc3cncnc3)c3ccccn3c2=O)c1', '≥ 80%'),
  ('O=c1c(-c2cccc(OC(F)(F)F)c2)c([O-])[n+](Cc2cncnc2)c2ccccn12', '≥ 80%'),
  ('O=c1c(-c2ccc(F)cc2)c([O-])[n+](Cc2cncnc2)c2ccccn12', '≥ 80%'),
  ('O=c1c(-c2cc(C(F)(F)F)ccc2F)c([O-])[n+](Cc2cncnc2)c2ccccn12', '≥ 80%'),
  ('O=c1c(-c2cccc(C(F)(F)F)c2)c([O-])[n+](Cc2cncnc2)c2ccccn12', '≥ 80%');

This collection of values is drawn from patent US8895738B2.
